Where do the numbers come from? From the supplement of paper PMC10567573.

B1: WDFY1 (parent)
chain: LLIPKEDGVITASEDRTIRVWLKR

Variants of: B1
Assay: protein stability index of a GFP-peptide fusion (GPS, HEK-293T) (PSI 1-6); higher = more stable;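 note: lentivirally expressed fusions sorted by FACS into six bins by GFP to DsRed ratio, PSI derived from sequencing read proportions per bin multiplied by bin number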
Settings: c terminus: a fixed tail appended
Would you mind labelling by protein stability index? At or over 2 is MET, under is NOT MET.

seq_string="LLIPKEDGVITASEPRTIRVWLKR [D15P]" label=MET
seq_string="LLIPKEDGVITLSEDRTIRVWLKR [A12L]" label=MET
seq_string="LLIPKEDGVITASEDRTIRVWLKM [R24M]" label="NOT MET"
seq_string="LLIPREDGVITASEDRTIRVWLKR [K5R]" label="NOT MET"
seq_string="LLIHKEDGVITASEDRTIRVWLKR [P4H]" label="NOT MET"
seq_string="LLIPKEDGVITASEDRAIRVWLKR [T17A]" label=MET
seq_string="LLIPKEDGVITASEDRTIRVWLKV [R24V]" label="NOT MET"
seq_string="LLGPKEDGVITASEDRTIRVWLKR [I3G]" label=MET
seq_string="LQIPKEDGVITASEDRTIRVWLKR [L2Q]" label=MET
seq_string="LLIPKEDTVITASEDRTIRVWLKR [G8T]" label=MET
seq_string="LLIPKEVGVITASEDRTIRVWLKR [D7V]" label="NOT MET"
